Reported polymerase ribozyme fitness (log ratio) values follow for various variants
B1: TPR 5TU (parent)
chain: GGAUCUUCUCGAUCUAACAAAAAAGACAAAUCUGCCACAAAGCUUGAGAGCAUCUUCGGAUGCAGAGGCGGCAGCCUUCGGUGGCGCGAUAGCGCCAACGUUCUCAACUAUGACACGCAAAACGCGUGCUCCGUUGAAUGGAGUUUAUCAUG

Variants of: B1
Assay: polymerase ribozyme fitness, log enrichment relative to wild type (log ratio); higher = more active; in vitro selection for triplet polymerase activity
Variants at the floor of the assay were thinned out.

mutationName | valueModifier | polymerase ribozyme fitness (log ratio)
C32U C103U | = | -2.66
U6A U56A | = | -0.431
A89U C93G A147U | = | -2.7
U56A G152A | = | -2.52
A29U U61A A91C C96A G128C | ≤ | -4.2
C87A C93G C114U G141C | ≤ | -4.2
C118U U146C | = | -1.27
A115U U146G | = | -2.23
G42A A89G C93U C125U G141U | ≤ | -4.2
A19U U31G U144C | = | -1.49
C14A A39C G70A U130G | ≤ | -4.2
A3G U13A U56A C96A A138G | ≤ | -4.2
G80C G92U C96U U135G A150G | ≤ | -4.2
G80C G86U | = | -3.37
A29U A66U C79A G83A C96A A142U | ≤ | -4.2
U9G A29G A47C U53A U55G G124C G133C G143A | ≤ | -4.2
U53A C118G | = | -2.5
C14G A19C C75U U82C C93U A97U C105G | ≤ | -4.2
A24C G65A G84C A97G G100U C108G G141C | ≤ | -4.2
A16C C87U G128U | ≤ | -4.2
A3C A16G | = | -1.12
A24U A98U C99U U127G | = | -3.94
